Test: photoluminescence quantum yield (fraction); solvent given as SMILES
Settings: in C1COCCO1
MEASUREMENT_LABEL: photoluminescence quantum yield

Solved entries (count: 8):
In [3]: df
Out[3]:
                                   molecule                measurement_label  assay_value
0        O=C(O)COc1ccc2[nH]c3c(c2c1)CCCC3=O  photoluminescence quantum yield        0.007
1                 O=C1c2ccccc2-c2cccc(O)c21  photoluminescence quantum yield       0.0284
2  COc1ccc(C2=N/C(=C\c3ccc(C#N)cc3)C(=O)N2)cc1OC  photoluminescence quantum yield        0.189
3  COC(=O)c1ccc(/C=C2\N=C(c3ccccc3)OC2=O)cc1  photoluminescence quantum yield            0
4       CCn1c(=O)nc2n(C)c3cc(C)ccc3nc-2c1=O  photoluminescence quantum yield         0.14
5  O=C1c2ccccc2-c2ccc(N3CCN(c4ccccc4)CC3)c3cccc1c23  photoluminescence quantum yield         0.42
6  Cc1ccc(C2CC(c3ccc(O)cc3)=NN2c2ccc(S(N)(=O)=O)cc2)cc1 (stereo unspecified)  photoluminescence quantum yield         0.73
7  CN(C)c1ccc(/C=C/c2nc3cc(Br)ccc3nc2-c2ccccc2)cc1  photoluminescence quantum yield         0.14

(1) O=C1NC(c2ccccc2)=C/C1=C\c1ccccc1
(2) F[B-]1(F)n2c(nc(Br)c2Br)-c2cccc[n+]21
(3) Clc1nc(Cl)nc(Nc2ccc3c4cccc5cccc(c6cccc2c63)c54)n1
Arrange the 3 molecules from largest to smallest photoluminescence quantum yield. Answer with the labels in sequence, matching the requested order.
2, 3, 1
(2: 0.35, 3: 0.068, 1: 0.012)
